# Test system: MM-AN melanoma cells (minimal levels of c-MET)
# test method notes: Cell growth analysis (cell counting)
# Assay type: cell-based, human
# assay setup: Homo sapiens; MM-AN; 96 hrs
pIC50: −log10 of the molar value.
measured attribute: pIC50

record smiles	measured attribute	observed measurement
Cc1[nH]c(/C=C2\C(=O)Nc3ccc(S(=O)(=O)N(C)c4cccc(Cl)c4)cc32)c(C)c1C(=O)N1CCN(C)CC1	pIC50	5.30

* * *

# System: melanoma cell lines that expressed c-Met
# test method notes: Cell growth analysis (cell counting)
# Type: cell-based
# assay setup: Homo sapiens; 96 hrs, MEM with 10% serum
measured attribute: IC50

record smiles	measured attribute	observed measurement
Cc1[nH]c(/C=C2\C(=O)Nc3ccc(S(=O)(=O)N(C)c4cccc(Cl)c4)cc32)c(C)c1C(=O)N1CCN(C)CC1	IC50	1 to 2.5 µM
